Assay: Human HepG2 cell viability assay in 384 well format
Format: toxicity, cell-based
Design: dose 125 nL, time 70.5 hour; concentration not given beside the values
Settings: HepG2 cells, read-out: Inhibition
Listed molecules paired with reported cytotoxicity at 70.5 h
Report only the number, with the unit % understood.

CCc1nnc2n1CCN(CCC(=O)Nc1cc(C)on1)C2 has a reported cytotoxicity at 70.5 h of -5.92

CN1C[C@@H]2CC[C@H](CC1=O)N2C(=O)c1ccc(-c2ccccc2)[nH]c1=O has a reported cytotoxicity at 70.5 h of -8.24

---

Assay: Human HepG2 cell viability assay in 384 well format
Assay type: toxicity, cell-based
Set-up: dose 125 nL, time 70.5 hour; concentration not given beside the values
Details: HepG2 cells, read-out: Inhibition
Attribute Measured: cytotoxicity at 70.5 h (%)
Report only the number, with the unit % understood.

Compound: O=C(c1ccc2ccccc2c1)C1CCCN(C(=O)Cn2cncn2)C1 (stereo unspecified)
cytotoxicity at 70.5 h (%): -1.71
--
Compound: COc1ccc(CN(C)C(=O)CCC(=O)c2cccs2)c(OC)c1OC
cytotoxicity at 70.5 h (%): -3.38
--
Compound: O=C1CCC[C@]2(CN(S(=O)(=O)N3CCCCC3)C[C@H]2c2cccnc2)N1
cytotoxicity at 70.5 h (%): -6.21
--
Compound: CC(C)(O)C1CCN(C(=O)Nc2nc(-c3ccccc3)ns2)CC1
cytotoxicity at 70.5 h (%): -4.79
--
Compound: COc1ccc(C[C@H]2CN(C(=O)c3cscn3)CC[C@@H]2OC)cc1
cytotoxicity at 70.5 h (%): 49.9

CN1CCC(c2nc3ccc(-c4cccc(F)c4)cn3n2)CC1 has a reported cytotoxicity at 70.5 h of -6.5

CN1C(=O)CC(c2ccccc2)C12CCN(C(=O)c1ccc[nH]1)CC2 (stereo unspecified) has a reported cytotoxicity at 70.5 h of -4.56

CCc1ccc(CN(CCCn2ccnc2)Cc2ccc(C)s2)o1 has a reported cytotoxicity at 70.5 h of 21.1

Cc1ccc(CN(C(=O)C(C)S(C)(=O)=O)C2CC2)cc1C (stereo unspecified) has a reported cytotoxicity at 70.5 h of -4.96

Cc1ncncc1C(=O)N1CCCN(Cc2cnn(C(C)C)c2)CC1 has a reported cytotoxicity at 70.5 h of 8.58

Cc1c(Cl)cccc1S(=O)(=O)N1CCC(S(=O)(=O)c2nncn2C)CC1 has a reported cytotoxicity at 70.5 h of 1.44

---

Experiment: Human HepG2 cell viability assay in 384 well format
Format: toxicity, cell-based
Set-up: dose 125 nL, time 70.5 hour; concentration not given beside the values
Details: HepG2 cells, read-out: Inhibition
Listed compounds paired with reported cytotoxicity at 70.5 h
Report only the number, with the unit % understood.

In the examples that follow, each entry is paired with its recorded cytotoxicity at 70.5 h.
Compound: CC(C)Oc1ccccc1CNC(=O)c1[nH]ncc1Br
cytotoxicity at 70.5 h (%): 7
//
Compound: CN(C)c1ncc2c(c1C(=O)O)CCN(Cc1ccco1)C2
cytotoxicity at 70.5 h (%): -4.04
//
Compound: Cc1ccccc1CN1C[C@@H](CN(C)CCO)[C@@H](CO)C1
cytotoxicity at 70.5 h (%): -11.6
//
Compound: CC(=O)N1CCC(=O)N(C2CCCC2)Cc2ccccc21
cytotoxicity at 70.5 h (%): 7.97
//
Compound: Nc1cc(N2CCCC(Cc3ccc(F)cc3F)(C(=O)O)C2)ncn1 (stereo unspecified)
cytotoxicity at 70.5 h (%): -5.98

CCN(Cc1ccc(OC)c(F)c1)Cc1nc2c(cnn2C)c(=O)[nH]1 has a reported cytotoxicity at 70.5 h of -1.49
